Hey, just so you know, these numbers are from the supplement of paper PMC9233669.

system: biotinyl-Val-oxazolone; experiment: self-aminoacylation, catalytic enhancement (BVO) (fold over background); higher = more active; k-Seq, kA / k0A0; sequences stand for … in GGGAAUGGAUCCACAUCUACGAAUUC…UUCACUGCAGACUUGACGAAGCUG
This sample holds only a part of the variants without activity.
Below is a list of entries, each paired with its recorded self-aminoacylation value.
Enter a number only.

Worked examples follow.
### Prompt Need self-aminoacylation, item AUUACCCUGGUCCCCGAGUGA [Fam2.1 aminoacylation ribozyme variant]
### Response 8.55

### Prompt Now this one: CCUAACUUCAAGCAAUCGGUC [Fam1B.1 aminoacylation ribozyme variant]
### Response 1.01

### Prompt Then AUUCAACUAGGUCAUCGGGUU [Fam2.2 aminoacylation ribozyme variant] ?
### Response 1.66

Next:
### Prompt Requested read-out: self-aminoacylation. Entry: AUUACCCUGGUAAUUGAGUGA [Fam2.1 aminoacylation ribozyme variant]
### Response 6.33

---

system: biotinyl-Phe-oxazolone; assay: self-aminoacylation, catalytic enhancement (BFO) (fold over background); higher = more active; k-Seq, kA / k0A0; sequences stand for … in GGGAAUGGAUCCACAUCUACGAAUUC…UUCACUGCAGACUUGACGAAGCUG
Fewer inactive variants are shown than the library holds.
measuredQuantity: self-aminoacylation
Could you keep your reply to the number by itself?

### Prompt Find the recorded self-aminoacylation belonging to AUUACCCUGGUGAUAGAGUGA [Fam2.1 aminoacylation ribozyme variant] and report it.
### Response 53.4

### Prompt Follow-up item: AACUUUGCUAAUAGUUGCAAG [Fam3.1 aminoacylation ribozyme variant]
### Response 3.03

### Prompt Note, next up: AAGUUUGCUAAUAAUCGCAUG [Fam3.1 aminoacylation ribozyme variant]
### Response 1.21

Could you now look at the following sequence, please?
### Prompt Consider the sequence shown here: AAGUUUGCUAAGAGUCGGAAG [Fam3.1 aminoacylation ribozyme variant] What is its recorded self-aminoacylation?
### Response 1.35

---

tested on: biotinyl-Ile-oxazolone; experiment: self-aminoacylation, catalytic enhancement (BIO) (fold over background); higher = more active; k-Seq, kA / k0A0; sequences stand for … in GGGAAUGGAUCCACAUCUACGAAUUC…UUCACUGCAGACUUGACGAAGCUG
Variants at the floor of the assay were thinned out.
measuredQuantity: self-aminoacylation
Could you respond with only the numeric value?

### Prompt GET /values?readout=self-aminoacylation&item= CUACUUCAGACAAUGGGUCUG [Fam1A.1 aminoacylation ribozyme variant]
### Response 0.948

Further cases:
### Prompt Report self-aminoacylation for AUUGCCUUGGUCAUCGAGUGA [Fam2.1 aminoacylation ribozyme variant] please.
### Response 4.46

### Prompt How about this sequence: CUACUUCAAACAAUCGUCCUG [Fam1A.1 aminoacylation ribozyme variant]
### Response 0.562

---

system: biotinyl-Val-oxazolone; assay: self-aminoacylation, catalytic enhancement (BVO) (fold over background); higher = more active; k-Seq, kA / k0A0; sequences stand for … in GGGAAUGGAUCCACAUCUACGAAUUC…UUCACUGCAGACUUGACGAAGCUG
Fewer inactive variants are shown than the library holds.
self-aminoacylation for assorted sequences

Worked cases, self-aminoacylation given:
### Prompt Look up self-aminoacylation for this sequence: AACUUUGCUAAUAGUGGCAAG [Fam3.1 aminoacylation ribozyme variant]
### Response 0.919

### Prompt Follow-up item: AUUCAGCUAGGUGAUCGGGUG [Fam2.2 aminoacylation ribozyme variant]
### Response 4.04

### Prompt Try AUGCACCUAGGUCAUCGGCUG [Fam2.2 aminoacylation ribozyme variant] next.
### Response 2.2

### Prompt Record: CUACUUCAAACGAUCGGUCUG [Fam1A.1 aminoacylation ribozyme variant]
### Response 0.763

### Prompt Subsequent entry: CCACCCUUCAAGCUAUCGGUC [Fam1B.1 aminoacylation ribozyme variant]
### Response 1.43

Then there is this sequence:
### Prompt Consider the sequence shown here: AUUCACCUGGGUCAUCCGGUG [Fam2.2 aminoacylation ribozyme variant] What is its recorded self-aminoacylation?
### Response 7.4
